Origin of values: ChEMBL document CHEMBL3045843

- Target Or Test System: Nicotinic acetylcholine receptor alpha 5 subunit (Musca domestica, UniProt A9XFY4)
- Sequence (A9XFY4 whole entry): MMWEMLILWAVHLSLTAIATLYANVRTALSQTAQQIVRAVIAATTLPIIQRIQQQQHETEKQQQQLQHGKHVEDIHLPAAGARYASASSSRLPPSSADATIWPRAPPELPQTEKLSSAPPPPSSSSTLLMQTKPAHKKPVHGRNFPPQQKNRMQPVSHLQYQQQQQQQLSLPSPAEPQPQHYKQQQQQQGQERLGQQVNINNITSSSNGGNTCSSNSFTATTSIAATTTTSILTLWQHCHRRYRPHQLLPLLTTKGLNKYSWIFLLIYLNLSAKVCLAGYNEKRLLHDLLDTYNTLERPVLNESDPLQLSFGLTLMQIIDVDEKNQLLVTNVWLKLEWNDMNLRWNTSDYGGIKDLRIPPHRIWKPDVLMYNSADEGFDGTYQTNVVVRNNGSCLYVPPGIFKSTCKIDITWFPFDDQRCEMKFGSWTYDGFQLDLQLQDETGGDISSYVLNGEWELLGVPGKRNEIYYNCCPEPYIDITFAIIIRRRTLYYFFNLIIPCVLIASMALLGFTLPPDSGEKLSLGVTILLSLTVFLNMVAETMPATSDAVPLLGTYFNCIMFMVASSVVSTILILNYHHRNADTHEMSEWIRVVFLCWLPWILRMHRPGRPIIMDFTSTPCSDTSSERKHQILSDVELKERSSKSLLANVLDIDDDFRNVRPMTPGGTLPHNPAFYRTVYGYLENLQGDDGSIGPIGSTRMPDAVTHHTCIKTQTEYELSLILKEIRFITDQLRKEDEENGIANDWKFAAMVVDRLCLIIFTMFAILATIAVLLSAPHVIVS
- Method Notes: Displacement of [3H]alpha-bungarotoxin from nAChR in Musca domestica (house fly) head membrane after 60 min by scintillation counting
Value Kind: pKi
Reminder that pKi means the negative base-10 logarithm of the concentration expressed in mol/L.

Sample answers from the record:
> print(dat)
                                   compound  value.kind  data.value
1    C1=C(c2cccnc2)NCC1 [DIHYDRONICOTYRINE]         pKi        5.72
2           COC(=O)C1=CCCN(C)C1 [ARECOLINE]         pKi        3.29
3  C[N+]1(C)CCN(c2ccccc2)CC1 [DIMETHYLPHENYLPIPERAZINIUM]         pKi        4.06
4  O=[N+]([O-])/N=C1\NCCN1Cc1ccc(Cl)nc1 [IMIDACLOPRID]         pKi        5.13
5  CN1[C@@H]2CC[C@H]1C[C@@H](OC(=O)C(CO)c1ccccc1)C2 (stereo not given in full) [ATROPINE]         pKi        4.49
6  C[N+](C)(C)CCCCCCCCCC[N+](C)(C)C [DECAMETHONIUM]         pKi        3.99

// switching to the query compound
Exercise: Please look at this compound and report its pKi: c1cncc([C@@H]2CCCN2)c1 (racemic) [NORNICOTINE]
Solution: 5.06

###

- Method Notes: Disocciation constant, pKa of the compound at 37 degC
- Assay type: physicochemical
Value Kind: pKa
Give the figure only, with no unit attached.

The examples below pair each entry with its known result.
> print(dat)
                                 compound  value.kind  data.value
1                     c1cncc(CN2CCOCC2)c1         pKa        5.76
2                         CC(C)NCc1cccnc1         pKa        8.46
3  C1=C(c2cccnc2)NCC1 [DIHYDRONICOTYRINE]         pKa        7.21

Exercise: Return value of pKa for input c1cncc(C2=NCCC2)c1 , no commentary.
Solution: 5.23

###

- Target Or Test System: Nicotinic acetylcholine receptor alpha 5 subunit (Musca domestica)
- Method Notes: Displacement of [3H]alpha-bungarotoxin from nAChR in Musca domestica (house fly) head membrane after 60 min by scintillation counting
Quick list: Ki per entry.
Express the result in µM but write the number alone.

Take a look at these entries with their results.
> print(dat)
                compound  display.unit  data.value
1  CN1CCC[C@@H]1c1cccnc1            µM        59.9
2        CC(C)NCc1cccnc1            µM         226
3            CNCc1cccnc1            µM         600
4   C[N+](C)(C)CCOC(N)=O            µM         212
5    c1cncc(CN2CCCCC2)c1            µM        67.6

Exercise: Return reported Ki. Input compound: CCNCc1cccnc1
Solution: 380

Exercise: Tell us which Ki value is on record for CN(C)Cc1cccnc1
Solution: 201
